src = patent US7314861B2

molecular target: human MCH-2R (Homo sapiens); test: Radiolabeled MCH-R binding assay (SPA based), MCH-2R; conditions: MCH-2R IC50 (nM), Table 1, inhibition of [125I]-human MCH (Phe13, Tyr19) binding
Sequence (Q969V1 whole entry): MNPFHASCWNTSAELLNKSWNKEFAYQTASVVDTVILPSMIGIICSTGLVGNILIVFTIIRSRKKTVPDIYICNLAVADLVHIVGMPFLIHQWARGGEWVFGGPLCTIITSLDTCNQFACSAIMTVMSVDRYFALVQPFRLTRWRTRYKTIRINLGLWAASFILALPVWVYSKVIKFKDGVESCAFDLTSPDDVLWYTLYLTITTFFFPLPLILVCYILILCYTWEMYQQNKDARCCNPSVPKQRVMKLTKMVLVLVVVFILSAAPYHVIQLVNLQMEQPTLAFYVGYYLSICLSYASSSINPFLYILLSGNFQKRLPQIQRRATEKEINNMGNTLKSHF

compound	IC50 [nM]
CSCC[C@@H]1NC(=O)[C@@H](NC(=O)[C@H](CCCNC(=N)N)NC(C)=O)CSSC[C@@H](C(N)=O)NC(=O)[C@@H]2CCCN2C(=O)[C@H](CCCNC(=N)N)NC(=O)[C@H](Cc2ccc(O)cc2)NC(=O)[C@H](C(C)C)NC(=O)[C@H](CCCNC(=N)N)NC(=O)[C@@H](CC(N)=O)NC(=O)[C@H](CC(C)C)NC1=O [compound 18]	2.3

====

molecular target: human MCH-1R (Homo sapiens, UniProt Q99705); assay: Aequorin bioluminescence functional assay, MCH-1R; conditions: Table 1; % Activation at 10 μM, aequorin functional assay
Sequence (Q99705 whole entry): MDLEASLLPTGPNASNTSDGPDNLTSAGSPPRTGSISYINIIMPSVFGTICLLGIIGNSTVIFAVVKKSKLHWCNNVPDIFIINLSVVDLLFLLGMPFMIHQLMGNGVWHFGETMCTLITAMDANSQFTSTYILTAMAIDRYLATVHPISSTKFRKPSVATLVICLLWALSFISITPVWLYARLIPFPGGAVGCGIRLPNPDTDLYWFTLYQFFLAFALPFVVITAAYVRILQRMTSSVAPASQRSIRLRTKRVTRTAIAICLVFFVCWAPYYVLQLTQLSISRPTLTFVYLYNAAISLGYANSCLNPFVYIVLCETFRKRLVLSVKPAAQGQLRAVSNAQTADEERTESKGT

structure.smiles.string	MCH-1R Activation %
CSCC[C@@H]1NC(=O)[C@@H](NC(=O)[C@H](CCCNC(=N)N)NC(C)=O)CSSC[C@@H](C(N)=O)NC(=O)[C@@H]2CCCN2C(=O)[C@H](CCCNC(=N)N)NC(=O)[C@H](Cc2ccc(O)cc2)NC(=O)[C@H](C(C)C)NC(=O)[C@H](CCCNC(=N)N)NC(=O)[C@@H](CC2CCCCC2)NC(=O)[C@H](CC(C)C)NC1=O	0.1%
CSCC[C@@H]1NC(=O)[C@@H](NC(=O)[C@H](CCCNC(=N)N)NC(C)=O)CSSC[C@@H](C(N)=O)NC(=O)[C@@H]2CCCN2C(=O)[C@H](CCCNC(=N)N)NC(=O)[C@H](Cc2ccc(O)cc2)NC(=O)[C@H](C(C)C)NC(=O)[C@H](CCCNC(=N)N)NC(=O)[C@@H](CC(N)=O)NC(=O)[C@H](CC(C)C)NC1=O	39%

====

biological target: UniProt:Q969V1; assay: Radiolabeled MCH-R binding assay (SPA based), MCH-2R; settings: MCH-2R IC50 (nM), Table 1, inhibition of [125I]-human MCH (Phe13, Tyr19) binding
Where a SMILES comes first, the peptide text is derived from it. Bridges are numbered along the chain shown (N, C = ends). [ ]: non-standard residue; d: D form. hArg = N=C(N)NCCCC[C@H](N)C(=O)O
# reported IC50; entries follow
endpoint.label: IC50

molecule	endpoint.label	result
CSCC[C@@H]1NC(=O)[C@@H](NC(=O)[C@H](CCCNC(=N)N)NC(C)=O)CSSC[C@@H](C(N)=O)NC(=O)[C@@H]2CCCN2C(=O)[C@H](CCCNC(=N)N)NC(=O)[C@H](Cc2ccccc2)NC(=O)[C@H](C(C)C)NC(=O)[C@H](CCCNC(=N)N)NC(=O)CNC(=O)[C@H](CC(C)C)NC1=O [compound 27]	IC50	1.5 nM
CCCC[C@@H]1NC(=O)CNC(=O)[C@H](CC(C)C)NC(=O)[C@H](CCSC)NC(=O)[C@@H](NC(=O)[C@H](CCCNC(=N)N)NC(C)=O)CSSC[C@@H](C(N)=O)NC(=O)[C@@H]2CCCN2C(=O)[C@H](CCCNC(=N)N)NC(=O)[C@H](Cc2ccc(O)cc2)NC(=O)[C@H](C(C)C)NC1=O [compound 26]	IC50	9 nM
CSCC[C@@H]1NC(=O)[C@@H](NC(=O)[C@H](CCCNC(=N)N)NC(=O)[C@H](CC(C)C)NC(=O)[C@H](CCSC)NC(=O)[C@H](CC(=O)O)NC(=O)[C@H](Cc2ccccc2)NC(=O)[C@@H](N)CC(=O)O)CSSC[C@@H](C(=O)N[C@@H](Cc2c[nH]c3ccccc23)C(=O)N[C@@H](CCC(N)=O)C(=O)N[C@H](C(=O)O)C(C)C)NC(=O)[C@@H]2CCCN2C(=O)[C@H](CCCNC(=N)N)NC(=O)[C@H](Cc2ccc(O)cc2)NC(=O)[C@H](C(C)C)NC(=O)[C@H](CCCNC(=N)N)NC(=O)CNC(=O)[C@H](CC(C)C)NC1=O [compound 1]	IC50	0.5 nM
CSCC[C@@H]1NC(=O)[C@@H](NC(=O)[C@H](CCCNC(=N)N)NC(C)=O)CSSC[C@@H](C(N)=O)NC(=O)[C@@H]2CCCN2C(=O)[C@H](CCCNC(=N)N)NC(=O)[C@H](Cc2ccc(O)cc2)NC(=O)[C@H](C(C)C)NC(=O)[C@H](CCCCNC(=N)N)NC(=O)[C@@H](C)NC(=O)[C@H](CC(C)C)NC1=O [compound 36] (Ac-RCML[dA][hArg]VYRPC-NH2; disulfide 2-11)	IC50	0.9 nM
